- Test system: MRSA 3823
- protocol-description: microbe, parasite or virus in culture
- Assay type: cell-based, Staphylococcus aureus
- experimental-conditions: Staphylococcus aureus; MRSA 3823 (human/nose); read-out: MIC
For each entry below, report its MIC value.
API: value field is a number in µg/mL; no unit string.

What reported MIC corresponds to CCCCOC(=O)c1cc(O)c(O)c(O)c1 [Butyl gallate (BG), Butyl gallate] on MRSA 3823?
512

What reported MIC corresponds to CCCOC(=O)c1cc(O)c(O)c(O)c1 [Propyl gallate, propyl gallate] on MRSA 3823?
512

What reported MIC corresponds to CCCCCCCCCCCCOC(=O)c1cc(O)c(O)c(O)c1 [Lauryl gallate, lauryl gallate] on MRSA 3823?
64

What reported MIC corresponds to "CCn1cc(C(=O)O)c(=O)c2cc(F)c(N3CCNCC3)cc21" on MRSA 3823?
32

What reported MIC corresponds to "Cc1onc(-c2ccccc2)c1C(=O)N[C@@H]1C(=O)N2[C@@H]1SC(C)(C)[C@@H]2C(=O)O" on MRSA 3823?
128
